Where do the numbers come from? From patent US20250171438A1.

# System tested: human PAH with the R408W mutation (Homo sapiens, UniProt P00439, R408W)
# Construct: expressed in transfected cells
# Sequence (P00439 whole entry R408W): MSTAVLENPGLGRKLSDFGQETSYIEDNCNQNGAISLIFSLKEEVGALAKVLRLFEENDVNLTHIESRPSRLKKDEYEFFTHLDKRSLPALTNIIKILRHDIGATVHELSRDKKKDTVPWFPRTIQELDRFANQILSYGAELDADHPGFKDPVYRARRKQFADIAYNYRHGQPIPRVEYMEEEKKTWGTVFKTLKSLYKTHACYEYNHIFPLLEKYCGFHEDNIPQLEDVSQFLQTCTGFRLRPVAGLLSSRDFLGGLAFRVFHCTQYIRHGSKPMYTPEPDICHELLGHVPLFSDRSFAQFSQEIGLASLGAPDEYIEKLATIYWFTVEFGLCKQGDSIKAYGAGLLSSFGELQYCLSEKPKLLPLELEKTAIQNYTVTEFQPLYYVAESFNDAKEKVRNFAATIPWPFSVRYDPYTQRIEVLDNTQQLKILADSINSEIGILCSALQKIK
# Assay notes: Cell Based Phenylalanine Flux Assay
# Recorded conditions: A375 cells expressing human R408W PAH; 24 hrs with compound; 13C-Tyrosine by LC-MS; average where tested multiple times; read-out: AC50
Endpoint name: AC50

Query: Can you share its AC50? I mean this molecule: Cn1ccc(C(=O)N2CCc3[nH]cnc3C2c2nc3c(F)cccc3s2)n1 (centres unmarked)
Result: 1 to 5 µM

Query: Also O=C(CCc1nnc(C(F)F)o1)N1CCc2[nH]cnc2C1c1nc2ccccc2s1 (centres unmarked) ?
Result: > 5 µM

Query: Also O=C(c1n[nH]c2ccccc12)N1CCc2[nH]cnc2C1c1nc2cccc(F)c2s1 (centres unmarked) ?
Result: 1 to 5 µM

Query: Also O=C(Cc1coc(C(F)F)n1)N1CCc2[nH]cnc2[C@H]1c1nc2ccccc2[nH]1 ?
Result: 1 to 5 µM

Query: Also CC1CN(C(=O)c2cnn3cc(CN(C)C)ccc23)C(c2nc3ccccc3s2)c2nc[nH]c21 (centres unmarked) ?
Result: > 5 µM

---

# System tested: human PAH with the R408W mutation (Homo sapiens, UniProt P00439, R408W)
# Construct: expressed in transfected cells
# Assay notes: Cell Based Phenylalanine Flux Assay
# Recorded conditions: A375 cells expressing human R408W PAH; 24 hrs with compound; 13C-Tyrosine by LC-MS; average where tested multiple times; read-out: AC50
Consider the following compounds; for each one, report its AC50.

Query: Can you share its AC50? I mean this compound: O=C(c1cnn2ccccc12)N1CCc2[nH]cnc2C1c1nc2ccc(Cl)cc2s1 (centres unmarked)
Result: > 5 µM

Query: Also O=C(c1cc(C(F)F)n[nH]1)N1CCc2[nH]cnc2C1c1nc2c(F)cccc2s1 (centres unmarked) ?
Result: 1 to 5 µM

Query: Also Cc1nnc(C(=O)N2CC(C)c3[nH]cnc3C2c2nc3ccccc3s2)o1 (centres unmarked) ?
Result: > 5 µM

Query: Also Cc1ccc2c(C(=O)N3CCc4[nH]cnc4C3c3nc4ccc(Cl)cc4[nH]3)cnn2c1 (centres unmarked) ?
Result: > 5 µM

Query: Also Cc1nnc(CCC(=O)N2CCc3[nH]cnc3C2c2nc3cc(F)ccc3s2)s1 (centres unmarked) ?
Result: > 5 µM

Query: Also Cc1nnc(CCC(=O)N2CCc3[nH]cnc3C2c2nc3ccc(Br)cc3[nH]2)s1 (centres unmarked) ?
Result: > 5 µM

Query: Also O=C(Cc1cncs1)N1CCc2[nH]cnc2[C@H]1c1nc2ccccc2[nH]1 ?
Result: 1 to 5 µM

Query: Also O=C(CCc1nccs1)N1CCc2[nH]cnc2C1c1nc2ccc(Br)cc2s1 (centres unmarked) ?
Result: 1 to 5 µM

Query: Also CC(C)(O)c1cc(C(=O)N2CCc3[nH]cnc3C2c2nc3c(F)cccc3s2)no1 (centres unmarked) ?
Result: > 5 µM

Query: Also O=C(Cc1nccs1)N1CCc2[nH]cnc2[C@@H]1c1nc2ccc(Br)cc2[nH]1 (single isomer, unassigned) ?
Result: > 5 µM

Query: Also CC(C)(O)c1cc(C(=O)N2CCc3[nH]cnc3C2c2nc3ccccc3s2)on1 (centres unmarked) ?
Result: 1 to 5 µM

Query: Also O=C(c1nc2cc(F)ccc2s1)N1CCc2[nH]cnc2[C@H]1c1nc2ccccc2[nH]1 ?
Result: 1 to 5 µM
